- METHOD DESCRIPTION: protein stability index of a GFP-peptide fusion (yeast GPS) (PSI 1-4); higher = more stable; sorted into four equal gates, so the index is relative within each strain
- CONDITION NOTES: san1∆
Readings of protein stability index for the listed sequences

RESIDUE CODES: NVGKPDQSIASGNTNGA [YOR098C/NUP1]
protein stability index: 2.83
--
RESIDUE CODES: EDDTQIVTGNLVLDLLT [IRR1]
protein stability index: 2.26
--
RESIDUE CODES: LIARRDDESPRFVMPNQ [RRP6]
protein stability index: 3.21
--
RESIDUE CODES: ENLVVADLESFANNHFL [COR1]
protein stability index: 1.97
--
RESIDUE CODES: IKFFWNNTHVGRQFCNR [YLR018C/POM34]
protein stability index: 1.74
--
RESIDUE CODES: GNNKDLKNTMQYLTNFS [RPB4]
protein stability index: 3.02
--
RESIDUE CODES: VGLVMFSQFWYWFPLAH [RPN2]
protein stability index: 1.66
--
RESIDUE CODES: SGTSVFEVEMILMQQQM [SRP54]
protein stability index: 3.18
--
RESIDUE CODES: DIEQLEYSRDCFCEDHC [RPB3]
protein stability index: 2.92
--
RESIDUE CODES: ENAYKSENAPSASSKEF [YAR002W/NUP60]
protein stability index: 2.15
--
RESIDUE CODES: NISKSRAKPVTNSSILL [RRP6]
protein stability index: 2.23
--
RESIDUE CODES: AKNEDDPAHSLNYTVIN [AAR2]
protein stability index: 2.68
--
RESIDUE CODES: EESINEFKSIEIEMKNK [SMC4]
protein stability index: 3.31
--
RESIDUE CODES: LEQVEFEKNTILQQRSK [MED4]
protein stability index: 2.77
--
RESIDUE CODES: EEREAAASKVKLEEESK [RPC53]
protein stability index: 3.37
--
RESIDUE CODES: NESSSNTTVISDKQRRL [DIS3]
protein stability index: 2.98
--
RESIDUE CODES: FLFAPELGAINLHALSM [SWI1]
protein stability index: 2.49
--
RESIDUE CODES: RAKSCGVDAMSVDDLKK [RPL1A]
protein stability index: 2.69
--
RESIDUE CODES: ALSLHREILCYSKDAKE [FAS2]
protein stability index: 1.85
--
RESIDUE CODES: RIKLATTSERVSNENKK [RRI1]
protein stability index: 2.94
--
RESIDUE CODES: EYQIVYYNPQAGTKITI [RGR1]
protein stability index: 2.12
--
RESIDUE CODES: MNLQNNVLNQIHQILLP [CSE2]
protein stability index: 2.24
--
RESIDUE CODES: YPSKTLKTDGVRAVSIT [FAS2]
protein stability index: 2
--
RESIDUE CODES: EIDPLTGMPISNDPDVN [BRN1]
protein stability index: 2.87
--
RESIDUE CODES: KEKWPSLELQSFQKIPL [YML103C/NUP188]
protein stability index: 2.03
--
RESIDUE CODES: MRRNSKILNIIKCSQSS [POP5]
protein stability index: 2.1
--
RESIDUE CODES: IYRTTRQDGSYTYHSTN [ARP9]
protein stability index: 2.27
--
RESIDUE CODES: TQDESEIKDAETSCDNY [SMC4]
protein stability index: 3.4
--
RESIDUE CODES: IEKNVMESIGSDILTAE [RRP4]
protein stability index: 2.95
--
RESIDUE CODES: LKIQFILSTTLDPTDDE [SIN4]
protein stability index: 2.12
--
RESIDUE CODES: QQQQQQQQQQQNNSTGS [SSN2]
protein stability index: 2.52
--
RESIDUE CODES: YVQVRQPIFVAHTAGRY [RPS5]
protein stability index: 1.89
--
RESIDUE CODES: ESDTGLAPSHLWDIMGD [RPT1]
protein stability index: 3.06
--
RESIDUE CODES: NLENMSIQDTSTVAKNV [YCG1]
protein stability index: 3.1
--
RESIDUE CODES: IDKNHGFERLTVNEPQM [SRB7]
protein stability index: 3.23
--
RESIDUE CODES: SLNLQYVNYEISTAKAW [YML103C/NUP188]
protein stability index: 2.55
--
RESIDUE CODES: APSVPEFIYLTKVLQFA [SNF2]
protein stability index: 1.78
--
RESIDUE CODES: ATESIKNRRRIHGELKT [SMC1]
protein stability index: 2.28
--
RESIDUE CODES: TNTHPNFLSKIRNINVQ [SNF2]
protein stability index: 1.49
--
RESIDUE CODES: WGMEPLEDYVPHQSPDA [RPB2]
protein stability index: 2.98
--
RESIDUE CODES: FQNTNTRSALKLVRESE [QCR2]
protein stability index: 2.81
--
RESIDUE CODES: ERAARVAAKIAALAGQQ [RPL5]
protein stability index: 2.57
--
RESIDUE CODES: YGQRAVLKFAAHTGATP [RPS0B]
protein stability index: 2.66
--
RESIDUE CODES: DIEEGPITSKSWEEGTR [MCD1]
protein stability index: 2.99
--
RESIDUE CODES: IHGQDFQFFPKELDALQ [ISW2]
protein stability index: 3.11
--
RESIDUE CODES: TVRVDKASTYGELVLDI [SNF12]
protein stability index: 2.02
--
RESIDUE CODES: RQPSLHKMSMMAHRVKV [RPO21]
protein stability index: 2.81
--
RESIDUE CODES: TKKKRKPTEVNDSENNS [ITC1]
protein stability index: 3.16
--
RESIDUE CODES: LSQSRIKIKSLEYEISK [YIL149C/MLP2]
protein stability index: 2.37
--
RESIDUE CODES: IPFPDHNQSPRNTYQSA [RPB2]
protein stability index: 3.22
--
RESIDUE CODES: GSEEKAFVPKKRKTNII [SRP54]
protein stability index: 2.88
--
RESIDUE CODES: MQIFVKTLTGKTITLEV [RPS31]
protein stability index: 2.61
--
RESIDUE CODES: DFLLSDWNKRFSHLAGG [BRR2]
protein stability index: 2.96
--
RESIDUE CODES: QQLQVLARYLKMDLDNG [FAS2]
protein stability index: 2.78
--
RESIDUE CODES: NRSNDALIKFMEYHISN [FAS2]
protein stability index: 2.96
--
RESIDUE CODES: LFSLLELGEQKCQELVT [RRP46]
protein stability index: 1.87
--
RESIDUE CODES: LKRADYTAVDTAKLQMR [RPN14]
protein stability index: 2.76

====

- METHOD DESCRIPTION: protein stability index of a GFP-peptide fusion (yeast GPS) (PSI 1-4); higher = more stable; sorted into four equal gates, so the index is relative within each strain
- CONDITION NOTES: san1∆
Below, each entry is listed alongside its reported protein stability index.

RESIDUE CODES: RKPILLPDPKPLPLDLN [ITC1]
protein stability index: 2.52

RESIDUE CODES: SSAHLIRINDEPILGQI [YML103C/NUP188]
protein stability index: 2

RESIDUE CODES: VAEIVQNVISLGSLTVE [RPC82]
protein stability index: 1.97

====

- METHOD DESCRIPTION: protein stability index of a GFP-peptide fusion (yeast GPS) (PSI 1-4); higher = more stable; sorted into four equal gates, so the index is relative within each strain
- CONDITION NOTES: san1∆
As shown below, each of these sequences has a reported protein stability index value.
QUANTITY KIND: protein stability index

RESIDUE CODES: TEGPSDKKLNLNLPLQF [SNF12]
MEASURED RESULT: 3.31
//
RESIDUE CODES: PQDYVLERVKRIMEKSV [YML031W/NDC1]
MEASURED RESULT: 2.55
//
RESIDUE CODES: PQMQCALQNLSQLPITP [YGL172W/NUP49]
MEASURED RESULT: 2.12
//
RESIDUE CODES: LLTLIVREYEQPDANKK [ISW2]
MEASURED RESULT: 3.09
//
RESIDUE CODES: IIHFHSHPEKRMIPPRM [SSN3]
MEASURED RESULT: 3.06
//
RESIDUE CODES: RTIANQDHFHRLNYLYQ [RPR2]
MEASURED RESULT: 2.73
//
RESIDUE CODES: VYVTGGRNLGRIGTIVH [RPS4A]
MEASURED RESULT: 3.18
//
RESIDUE CODES: KLTRELEKKFQDRHVIF [RPS7A]
MEASURED RESULT: 3.09
//
RESIDUE CODES: FFTNPNKKRPSSKKVFS [YOR098C/NUP1]
MEASURED RESULT: 3.06
//
RESIDUE CODES: ETELPTLSLPDSQDYIL [SMC1]
MEASURED RESULT: 3.11

// provenance: the supplement of paper PMC9732359
